experimental_target: T1, TNFR1 (Homo sapiens, UniProt P19438)
T1 chain: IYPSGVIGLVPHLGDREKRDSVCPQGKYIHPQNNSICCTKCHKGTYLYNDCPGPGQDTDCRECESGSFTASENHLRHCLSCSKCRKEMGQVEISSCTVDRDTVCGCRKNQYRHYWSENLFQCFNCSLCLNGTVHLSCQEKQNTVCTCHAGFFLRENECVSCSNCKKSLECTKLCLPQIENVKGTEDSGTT
assay_comment: yeast display SC50
assay_endpoint: apparent Kd (screen) (nM)
Answers are plain numbers, in nM.

Would you please look over these solved cases?
A80M (designed binder) MTLQELLREEALRRAEAEAFRYALELLAEKFPEQKEYLLDLAEEIESQIRSLSGVDVEDVRKFLDKEWAWVKELLAEHPMELAEVEAARAARLAELRAEVEAKVAA ... 0.49
L6V (designed binder) MTLQEVLREEALRRAEAEAFRYALELLAEKFPEQKEYLLDLAEEIESQIRSLSGVDVEDVRKFLDKEWAWVKELLAEHPAELAEVEAARAARLAELRAEVEAKVAA ... 2.48
A98W (designed binder) MTLQELLREEALRRAEAEAFRYALELLAEKFPEQKEYLLDLAEEIESQIRSLSGVDVEDVRKFLDKEWAWVKELLAEHPAELAEVEAARAARLAELRWEVEAKVAA ... 0.49

Task item: Entry under review: E36R (designed binder) MTLQELLREEALRRAEAEAFRYALELLAEKFPEQKRYLLDLAEEIESQIRSLSGVDVEDVRKFLDKEWAWVKELLAEHPAELAEVEAARAARLAELRAEVEAKVAA . Reported apparent Kd (screen)?
Reply: 0.653
